# Assayed system: PRKG2 (human) (UniProt Q13237)
# Sequence (Q13237 whole entry, looked up): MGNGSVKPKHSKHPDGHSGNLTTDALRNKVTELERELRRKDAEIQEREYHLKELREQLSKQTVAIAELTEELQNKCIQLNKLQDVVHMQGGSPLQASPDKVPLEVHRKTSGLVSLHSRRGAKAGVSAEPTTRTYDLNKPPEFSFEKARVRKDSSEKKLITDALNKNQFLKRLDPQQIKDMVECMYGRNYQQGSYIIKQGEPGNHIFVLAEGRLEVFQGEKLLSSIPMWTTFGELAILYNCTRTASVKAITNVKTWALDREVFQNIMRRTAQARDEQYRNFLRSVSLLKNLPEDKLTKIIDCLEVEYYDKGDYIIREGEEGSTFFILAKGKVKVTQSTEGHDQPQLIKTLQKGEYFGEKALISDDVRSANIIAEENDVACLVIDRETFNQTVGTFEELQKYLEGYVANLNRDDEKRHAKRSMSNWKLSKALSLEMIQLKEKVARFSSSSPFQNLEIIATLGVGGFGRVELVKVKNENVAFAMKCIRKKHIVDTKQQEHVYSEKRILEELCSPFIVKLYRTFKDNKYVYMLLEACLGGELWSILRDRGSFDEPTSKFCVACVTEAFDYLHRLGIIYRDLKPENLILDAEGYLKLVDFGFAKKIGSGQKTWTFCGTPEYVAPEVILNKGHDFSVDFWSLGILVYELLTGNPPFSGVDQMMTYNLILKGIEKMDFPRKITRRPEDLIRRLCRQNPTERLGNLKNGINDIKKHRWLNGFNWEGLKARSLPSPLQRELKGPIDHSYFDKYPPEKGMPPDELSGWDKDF
# Test name: KINOMEscan competition binding
# Measurement parameters: compound 10.0 µM
Endpoint: kinase still bound, per cent of control (%)
Numbers only, in %.

// solved cases for kinase still bound, per cent of control follow
# Compound, Unit name, kinase still bound, per cent of control
measured = [
    ("C=CC(=O)Nc1ccc(C(=O)c2sc(Nc3ccc(N4CCN(C)CC4)cc3OC)nc2N)cc1", "%", 81),
    ("COc1cc(C)c(Sc2cnc(NC(=O)c3ccc(CNC(C)C(C)C)cc3)s2)cc1C(=O)N1CCN(C(C)=O)CC1 (stereo not drawn)", "%", 100),
]

State the recorded kinase still bound, per cent of control for every item in the following list.
1. O=c1[nH]c2ccccc2n1C1CCN(Cc2ccc(-c3nc4cc5[nH]cnc5cc4nc3-c3ccccc3)cc2)CC1
2. CCN1CCN(Cc2ccc(NC(=O)c3ccc(C)c(/C=C/c4cnc5[nH]ccc5c4OC)c3)cc2C(F)(F)F)CC1
3. COc1cc2c(Nc3ccc(NC(=O)c4ccccc4)cc3)ncnc2cc1OCCCN1CCOCC1
4. COc1cc(N2CCC(C(N)=O)CC2)ccc1Nc1nc(N)c(Cl)c(Nc2ccccc2S(=O)(=O)C(C)C)n1
5. CC(=O)c1c(C)c2cnc(Nc3ccc(N4CCNCC4)cn3)nc2n(C2CCCC2)c1=O
6. CNC(=O)Nc1ccc(-c2nc(N3CC4CCC(C3)O4)c3cnn(C4CCC5(CC4)OCCO5)c3n2)cc1

Result ::
1. 91
2. 91
3. 91
4. 100
5. 65
6. 88

----------
# Assayed system: EIF2AK2 (human) (UniProt P19525)
# Sequence (P19525 whole entry, looked up): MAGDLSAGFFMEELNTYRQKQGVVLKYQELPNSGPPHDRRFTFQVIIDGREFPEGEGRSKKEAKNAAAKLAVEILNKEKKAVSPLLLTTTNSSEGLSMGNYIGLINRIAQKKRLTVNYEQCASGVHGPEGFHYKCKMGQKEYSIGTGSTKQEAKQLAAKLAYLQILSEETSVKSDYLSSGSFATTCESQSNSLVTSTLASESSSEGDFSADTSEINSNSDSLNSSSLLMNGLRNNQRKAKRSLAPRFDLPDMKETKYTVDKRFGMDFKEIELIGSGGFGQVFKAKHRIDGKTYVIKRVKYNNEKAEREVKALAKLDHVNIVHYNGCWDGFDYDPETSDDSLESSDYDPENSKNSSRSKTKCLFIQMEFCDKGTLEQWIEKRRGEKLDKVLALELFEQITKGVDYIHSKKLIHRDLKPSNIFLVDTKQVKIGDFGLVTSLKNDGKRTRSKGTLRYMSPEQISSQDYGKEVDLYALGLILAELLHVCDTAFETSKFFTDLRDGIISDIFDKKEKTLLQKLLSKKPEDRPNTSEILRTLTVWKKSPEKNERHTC
# Test name: KINOMEscan competition binding
# Measurement parameters: compound 10.0 µM
Provide the reported kinase still bound, per cent of control of each item.
Numbers only, in %.

// solved cases for kinase still bound, per cent of control follow
# Compound, Unit name, Experimental value
data = [
    ("CCc1nc(-c2cccc(C)c2)c(-c2ccnc(NC(=O)c3ccccc3)c2)s1", "%", 94),
    ("Cc1cn(-c2cc(C(=O)Nc3ccc(C)c(NC(=O)c4ccno4)c3)cc(C(F)(F)F)c2)cn1", "%", 100),
    ("CC1=C(C(=O)Nc2cc3cn[nH]c3cc2F)C(c2ccc(C(F)(F)F)cc2)CC(=O)N1 (stereo not drawn)", "%", 76),
]

State the recorded kinase still bound, per cent of control for every item in the following list.
1. CCCS(=O)(=O)Nc1ccc(F)c(C(=O)c2c[nH]c3ncc(Cl)cc23)c1F
2. CCN1CCN(Cc2ccc(NC(=O)c3ccc(C)c(/C=C/c4cnc5[nH]ccc5c4OC)c3)cc2C(F)(F)F)CC1
3. CCOc1cc(N2CCC(O)CC2)ccc1Nc1ncc2c(n1)N(C)c1ccccc1C(=O)N2C
4. N#Cc1cc(-c2ccnc(Nc3ccc(-n4cnc(-c5cccnc5)n4)cc3)n2)cc(N2CCOCC2)c1
5. COc1ccc(N(C(=O)Oc2cc(C(=O)Nc3cccc(C(F)(F)F)c3)ccc2C)c2ccnc(Nc3ccc(N4CCN(C)CC4)cc3)n2)c(OC)c1

Result ::
1: 74; 2: 80; 3: 100; 4: 48; 5: 100

----------
# Assayed system: MET (human) (UniProt P08581)
# Sequence (P08581 whole entry, looked up): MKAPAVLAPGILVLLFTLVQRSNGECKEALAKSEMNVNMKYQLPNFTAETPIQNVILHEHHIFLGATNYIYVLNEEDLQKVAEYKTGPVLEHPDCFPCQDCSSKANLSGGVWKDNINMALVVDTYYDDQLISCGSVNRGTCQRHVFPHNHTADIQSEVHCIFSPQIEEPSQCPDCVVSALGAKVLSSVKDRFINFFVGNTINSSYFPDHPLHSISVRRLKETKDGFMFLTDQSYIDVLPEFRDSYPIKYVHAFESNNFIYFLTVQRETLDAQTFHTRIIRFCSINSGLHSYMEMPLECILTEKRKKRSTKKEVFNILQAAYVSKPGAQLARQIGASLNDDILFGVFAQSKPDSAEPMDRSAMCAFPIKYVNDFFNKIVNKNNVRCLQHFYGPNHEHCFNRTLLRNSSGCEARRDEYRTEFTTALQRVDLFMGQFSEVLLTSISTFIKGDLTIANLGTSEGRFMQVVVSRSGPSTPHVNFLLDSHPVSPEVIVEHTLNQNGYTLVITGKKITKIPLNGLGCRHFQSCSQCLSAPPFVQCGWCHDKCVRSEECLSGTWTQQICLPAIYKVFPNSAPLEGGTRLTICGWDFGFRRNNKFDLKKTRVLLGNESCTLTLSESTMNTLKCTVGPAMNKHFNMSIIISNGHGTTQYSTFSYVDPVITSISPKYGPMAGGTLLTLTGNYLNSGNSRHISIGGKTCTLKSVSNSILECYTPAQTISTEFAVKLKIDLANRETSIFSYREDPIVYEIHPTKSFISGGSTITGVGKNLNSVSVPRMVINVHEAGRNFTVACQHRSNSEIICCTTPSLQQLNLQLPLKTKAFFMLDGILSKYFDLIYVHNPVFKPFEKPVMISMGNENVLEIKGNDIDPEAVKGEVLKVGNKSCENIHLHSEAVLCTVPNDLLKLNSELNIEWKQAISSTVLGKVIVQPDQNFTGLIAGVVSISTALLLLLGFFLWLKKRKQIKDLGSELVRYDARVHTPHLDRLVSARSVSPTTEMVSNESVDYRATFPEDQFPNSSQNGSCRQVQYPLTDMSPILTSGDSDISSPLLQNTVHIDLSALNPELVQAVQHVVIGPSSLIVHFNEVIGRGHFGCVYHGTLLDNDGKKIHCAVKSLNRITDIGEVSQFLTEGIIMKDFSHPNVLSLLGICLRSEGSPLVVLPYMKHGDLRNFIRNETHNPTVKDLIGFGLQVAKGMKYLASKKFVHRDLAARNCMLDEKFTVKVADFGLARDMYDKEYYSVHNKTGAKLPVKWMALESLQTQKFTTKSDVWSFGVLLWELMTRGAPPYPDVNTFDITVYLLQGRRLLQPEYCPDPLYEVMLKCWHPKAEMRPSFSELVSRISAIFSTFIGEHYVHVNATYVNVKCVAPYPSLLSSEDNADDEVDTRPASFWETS
# Test name: KINOMEscan competition binding
# Measurement parameters: compound 10.0 µM
Label rule met when kinase still bound, per cent of control < 80%; otherwise rule not met.

Worked examples, 6 molecules total:
# Molecule, Group label
records = [
    ("CCc1nc(-c2cccc(C)c2)c(-c2ccnc(NC(=O)c3ccccc3)c2)s1", "rule not met"),
    ("CCN1CCN(Cc2ccc(NC(=O)c3ccc(C)c(/C=C/c4cnc5[nH]ccc5c4OC)c3)cc2C(F)(F)F)CC1", "rule met"),
    ("CC(=O)c1c(C)c2cnc(Nc3ccc(N4CCNCC4)cn3)nc2n(C2CCCC2)c1=O", "rule met"),
    ("COc1cc2ncnc(Nc3cccc(Cl)c3)c2cc1OC", "rule met"),
    ("N#Cc1cc(-c2ccnc(Nc3ccc(-n4cnc(-c5cccnc5)n4)cc3)n2)cc(N2CCOCC2)c1", "rule met"),
    ("CCN(CCO)CCCOc1ccc2c(Nc3cc(CC(=O)Nc4cccc(F)c4)[nH]n3)ncnc2c1", "rule met"),
]

Query :: Determine if `COc1ccc(N(C(=O)Oc2cc(C(=O)Nc3cccc(C(F)(F)F)c3)ccc2C)c2ccnc(Nc3ccc(N4CCN(C)CC4)cc3)n2)c(OC)c1` shows kinase still bound, per cent of control strictly lower than 80%.
Result :: rule not met

Query :: Determine if `Cc1cn(-c2cc(C(=O)Nc3ccc(C)c(NC(=O)c4ccno4)c3)cc(C(F)(F)F)c2)cn1` shows kinase still bound, per cent of control strictly lower than 80%.
Result :: rule not met

Query :: Determine if `C=CC(=O)Nc1ccc(C(=O)c2sc(Nc3ccc(N4CCN(C)CC4)cc3OC)nc2N)cc1` shows kinase still bound, per cent of control strictly lower than 80%.
Result :: rule not met

Query :: Determine if `CNC(=O)Nc1ccc(-c2nc(N3CC4CCC(C3)O4)c3cnn(C4CCC5(CC4)OCCO5)c3n2)cc1` shows kinase still bound, per cent of control strictly lower than 80%.
Result :: rule not met

Query :: Determine if `O=c1[nH]c2ccccc2n1C1CCN(Cc2ccc(-c3nc4cc5[nH]cnc5cc4nc3-c3ccccc3)cc2)CC1` shows kinase still bound, per cent of control strictly lower than 80%.
Result :: rule met

Query :: Determine if CC1=C(C(=O)Nc2cc3cn[nH]c3cc2F)C(c2ccc(C(F)(F)F)cc2)CC(=O)N1 (configuration not stated) shows kinase still bound, per cent of control strictly lower than 80%.
Result :: rule met

Query :: Determine if `N#C/C(=C1/Nc2ccccc2S1)c1ccnc(NCCc2cccnc2)n1` shows kinase still bound, per cent of control strictly lower than 80%.
Result :: rule not met

Query :: Determine if `CCOc1cc(N2CCC(O)CC2)ccc1Nc1ncc2c(n1)N(C)c1ccccc1C(=O)N2C` shows kinase still bound, per cent of control strictly lower than 80%.
Result :: rule not met
